Form field: solubility (one value per entry).
# Assay protocol: pH-solubility of linsitinib free base and selected salts (pH 1.5 to 6.5, overnight equilibration, HPLC)
# Format: physicochemical
# Run conditions: aqueous solution, pH adjusted with NaOH and HCl, pH 2.5, aqueous buffer, thermodynamic from solid, target pH 2.5; overnight equilibration; * = clear solution, not equilibrium value; read-out: Solubility
Report as a plain number; the unit mg/mL is understood.

// known answers, use as guide
{"columns": ["Molecule", "Unit spec", "solubility"],
 "data": [
  ["C[C@]1(O)C[C@@H](c2nc(-c3ccc4ccc(-c5ccccc5)nc4c3)c3c(N)nccn32)C1.O=C(O)C[C@H](O)C(=O)O [L-Malate 1]", "mg/mL", 39],
  ["CCS(=O)(=O)O.C[C@]1(O)C[C@@H](c2nc(-c3ccc4ccc(-c5ccccc5)nc4c3)c3c(N)nccn32)C1 [Esylate 1]", "mg/mL", 47.3],
  ["C[C@]1(O)C[C@@H](c2nc(-c3ccc4ccc(-c5ccccc5)nc4c3)c3c(N)nccn32)C1 [Linsitinib free base, reference compound]", "mg/mL", 17.6]
]}

Attention now shifts to the item below.
IN: Output solubility of C[C@]1(O)C[C@@H](c2nc(-c3ccc4ccc(-c5ccccc5)nc4c3)c3c(N)nccn32)C1.O=P(O)(O)O [Phosphate 1]
OUT: 18.4

---

The entries below are paired with their reported solubility.
# Assay protocol: Equilibrium solubility in bio-relevant media (FaSSGF pH 1.6, FaSSIF pH 6.5)
# Assay type: physicochemical
# Run conditions: fasted state simulated intestinal fluid (FaSSIF), pH 6.5, fassif, thermodynamic from solid, FaSSIF (pH 6.5); read-out: Solubility
Hi, when you answer, please include the unit after the number. Thanks!

Solved cases (2 shown):
{"columns": ["Compound", "solubility"],
 "data": [
  ["C[C@]1(O)C[C@@H](c2nc(-c3ccc4ccc(-c5ccccc5)nc4c3)c3c(N)nccn32)C1.O=P(O)(O)O [Phosphate 1]", "9 µg/mL"],
  ["C[C@]1(O)C[C@@H](c2nc(-c3ccc4ccc(-c5ccccc5)nc4c3)c3c(N)nccn32)C1 [Linsitinib free base, reference compound]", "25 µg/mL"]
]}

Now, please, on to the next compound.
IN: Indicate its recorded solubility; the compound in question is C[C@]1(O)C[C@@H](c2nc(-c3ccc4ccc(-c5ccccc5)nc4c3)c3c(N)nccn32)C1.O=C(O)C[C@H](O)C(=O)O [L-Malate 1]
OUT: 44 µg/mL

---

# Assay protocol: pH-solubility of linsitinib free base and selected salts (pH 1.5 to 6.5, overnight equilibration, HPLC)
# Assay type: physicochemical
# Run conditions: target pH 6.5; after overnight equilibration
Assay metric: Final pH
A bare number is all that is needed in reply.

Examples with answers:
{"columns": ["Molecule", "Final pH"],
 "data": [
  ["CCS(=O)(=O)O.C[C@]1(O)C[C@@H](c2nc(-c3ccc4ccc(-c5ccccc5)nc4c3)c3c(N)nccn32)C1 [Esylate 2]", 4.34],
  ["C[C@]1(O)C[C@@H](c2nc(-c3ccc4ccc(-c5ccccc5)nc4c3)c3c(N)nccn32)C1.O=C(O)C[C@H](O)C(=O)O [L-Malate 1]", 5.18],
  ["C[C@]1(O)C[C@@H](c2nc(-c3ccc4ccc(-c5ccccc5)nc4c3)c3c(N)nccn32)C1 [Linsitinib free base, reference compound]", 6.43],
  ["CCS(=O)(=O)O.C[C@]1(O)C[C@@H](c2nc(-c3ccc4ccc(-c5ccccc5)nc4c3)c3c(N)nccn32)C1 [Esylate 1]", 4.46]
]}

Let's switch to this molecule now.
IN: Please report the measured Final pH for C[C@]1(O)C[C@@H](c2nc(-c3ccc4ccc(-c5ccccc5)nc4c3)c3c(N)nccn32)C1.O=P(O)(O)O [Phosphate 1]
OUT: 6.21
